# Assayed system: human AXL Ig1 domain fused to human Fc (Homo sapiens, UniProt P30530)
# Protocol description: BLI
Readout label: binding result

| Binder | Value measured |
| --- | --- |
| tilvestamab scFv-osmY Y108A (scFv, V domains shown) VH: EVQLVESGGGLVQPGGSLRLSCAASGYSFTDFYINWVRQAPGKGLEWVARIFPGGDNTYYNEKFKGRFTLSADTSKSTAYLQMNSLRAEDTAVYYCARRGLYYAMDAWGQGTLVTVSS VL: DIQMTQSPSSLSASVGDRVTITCRSSQSLVHSNGIPYLHWYQQKPGKAPKLLIYRVSNRFSGVPSRFSGSGSGTDFTLTISSLQPEDFATYYCSQGTHVPPTFGQGTKVEIK | binds |

This collection of values is drawn from paper doi:10.1101/2024.12.12.628227.
